Source: patent US20210380606A1

# tested target: human A2B receptors (Homo sapiens)
# Construct: expressed in transfected cells; host or cells: HEK293
# Sequence (P29275 1-332): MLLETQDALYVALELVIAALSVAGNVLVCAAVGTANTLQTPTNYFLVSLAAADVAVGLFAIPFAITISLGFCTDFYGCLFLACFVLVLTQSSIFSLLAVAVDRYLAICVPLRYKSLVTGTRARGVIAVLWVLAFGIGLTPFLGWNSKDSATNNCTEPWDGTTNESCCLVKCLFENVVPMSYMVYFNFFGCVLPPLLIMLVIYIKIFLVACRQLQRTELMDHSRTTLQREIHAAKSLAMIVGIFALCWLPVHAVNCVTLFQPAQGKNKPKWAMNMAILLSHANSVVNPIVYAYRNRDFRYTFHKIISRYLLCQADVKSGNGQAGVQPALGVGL
# assay overview: Functional human A2B receptor activity, recombinant HEK293 cells, cAMP (HTRF)
# Type: cell-based
# details: read-out: A2B (Category)
# Procedure: The functional activities of human A2A and A2B receptors were determined by quantification of cAMP, being the second messenger for adenosine receptors. After a 15 min incubation, HTRF reagents (cAMP dynamic 2, Cis Bio) were added and the cellular cAMP levels were determined using the ENVISION (Perkin Elmer) plate reader.
pIC50: −log10 of the molar value.
experimental readout: pIC50

[
  {
    "compound": "[2H]C1([2H])COCCN(C(=O)c2cc3c(cn2)c(-c2cnn4ccccc24)nn3CC(F)(F)F)C1",
    "pIC50": "> 7.00"
  },
  {
    "compound": "O=C(c1cc2c(cn1)c(-c1cnn3ccccc13)nn2CC(F)(F)F)N1CCC(O)CC1",
    "pIC50": "> 7.00"
  },
  {
    "compound": "O=C(c1cc2c(cn1)c(-c1coc3ccccc13)nn2CC(F)(F)F)N1CC2CCC(C1)O2",
    "pIC50": "> 7.00"
  }
]

# value of pIC50, human A2B receptors (Homo sapiens), item NC(=O)c1ccc2ncc(-c3nn(CC(F)(F)F)c4cc(C(=O)N5CCCCCC5)ncc34)n2c1 = > 7.00

Known value: human A2B receptors (Homo sapiens) pIC50 of the compound CC1(O)CCN(C(=O)c2cc3c(cn2)c(-c2coc4ccc(F)cc24)nn3CC(F)(F)F)CC1 equals > 7.00

For CS(=O)(=O)Cn1nc(-c2coc3ccccc23)c2cnc(C(=O)N3CCC(O)CC3)cc21 on human A2B receptors (Homo sapiens), measured pIC50 was > 7.00

Note to self: pIC50 of O=C(c1cc2c(cn1)c(-c1cnc3c(F)cc(F)cn13)nn2CC(F)(F)F)N1CCCCCC1 with human A2B receptors (Homo sapiens) was > 7.00

Kindly note: human A2B receptors (Homo sapiens), O=C(c1cc2c(cn1)c(-c1cnc3ccc(F)cn13)nn2CC(F)F)N1CCCCCC1 , pIC50 value reported: > 7.00
